B1: VH:VL chains; a variant is named by its letters at X, in order (parent)
chain 1: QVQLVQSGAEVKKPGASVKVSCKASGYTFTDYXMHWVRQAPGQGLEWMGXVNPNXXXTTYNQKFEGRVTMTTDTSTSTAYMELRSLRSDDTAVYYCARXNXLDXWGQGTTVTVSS
chain 2: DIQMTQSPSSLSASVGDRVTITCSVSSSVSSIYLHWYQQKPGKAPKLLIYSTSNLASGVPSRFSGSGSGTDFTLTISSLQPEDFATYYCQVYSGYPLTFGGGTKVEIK

variants of: B1; assay: yeast display scFab, FACS + sequencing; details: with MET
The list shows a part of the results. No count for the full screen is at hand.
Measured Quantity: antigen binding call

>  <Mutation Id>
YRRRGSLY

>  <antigen binding call>
binds

$$$$
>  <Mutation Id>
VRRRGAVV

>  <antigen binding call>
binds

$$$$
>  <Mutation Id>
VAGGGAAV

>  <antigen binding call>
no binding

$$$$
>  <Mutation Id>
FAGRDVGV

>  <antigen binding call>
no binding

$$$$
>  <Mutation Id>
VTGEDSSD

>  <antigen binding call>
no binding

$$$$
>  <Mutation Id>
DAGTDAGD

>  <antigen binding call>
no binding

$$$$

Prompt: So what's the measured antigen binding call for this one? DAGRGDGF
Response: no binding

Prompt: Item YTERNFGV has what recorded antigen binding call?
Response: no binding

Prompt: Reported antigen binding call for VERASAVV : what is it?
Response: no binding

Prompt: Give the measured antigen binding call of YTGTSAGV .
Response: no binding

Prompt: Query (variant): DKAGGDGS ; field requested: antigen binding call
Response: no binding

Prompt: For the variant shown here, SEARSSSA , give the reported antigen binding call.
Response: no binding

Prompt: Dear colleague, I am looking for the recorded antigen binding call of the following variant: YKKTGYWV
Response: no binding

Prompt: # lookup: antigen binding call of YRAGDFGV
Response: no binding

Prompt: Look at this variant and give its reported antigen binding call. FRGRGSSD
Response: binds

Prompt: Can you share its antigen binding call? I mean this variant: YRRRGDWD
Response: binds

Prompt: // lookup antigen binding call for YRTRDAGY
Response: binds

Prompt: For the variant shown here, YGGRADVY , give the reported antigen binding call.
Response: no binding
